Target: ScBzz1-D1
Assay: SPOT peptide array binding signal intensity (averaged, normalized) (arbitrary units (background-subtracted, floor 0; scale differs between SH3 domains)); higher = stronger binding of the SH3 domain to the peptide
Use 20 as the dividing line for SPOT peptide array binding signal intensity, with the line itself on the Satisfied side and lower values as Not satisfied.

Input: Check if SPOT peptide array binding signal intensity >= 20 (inclusive). Item: LLRRTIPKRPFYHVL
Output: Not satisfied

Here is another binder to look at.
Input: Determine whether this binder has SPOT peptide array binding signal intensity no lower than 20: ANNQGPPNLPARDKS
Output: Not satisfied
